B1: MEF2-activating motif and SAP domain-containing transcriptional regulator, residues 170 to 204; numbered along this chain, Q6ZN01 (parent)
chain: LKLEELTVSELRQQLRLRGLPVSGTKSMLLERMRG

- Variants of: B1
- procedure-details: abundance fitness (aPCA) (normalised: wild type 0, dead -1); higher = more abundant; growth selection in yeast, the domain comes from the species named
- settings: Homo sapiens
property-label: abundance fitness
API note: the answer field is a bare number with no unit suffix.

Here are 10 variants together with their reported answers.
sequence_variant=L15M test_result=-0.185
sequence_variant=K26S test_result=-0.697
sequence_variant=G19T test_result=-0.683
sequence_variant=E4V test_result=-1.08
sequence_variant=P21N test_result=-0.303
sequence_variant=L20Y test_result=-0.284
sequence_variant=L20E test_result=-0.192
sequence_variant=E10M test_result=-0.608
sequence_variant=Q14C test_result=-0.313
sequence_variant=E5G test_result=-0.359

Exercise: Fill in the blank: the reported abundance fitness of `S9P` is ____.
Solution: -0.291

Numbers sourced from the Human Domainome abundance scans (Beltran et al. 2025).
